Assay: chemical genetic growth profiling, strain panel (AID 1159580);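 note: tested at 20 µM; growth read once vehicle control cultures reached saturation at 30 °C; 1 = growth at the plate median or of vehicle wells; lower values mean less growth of the strain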
Conditions: S. cerevisiae deletion strains, growth OD, locus YOR290C, strain snf2, active compounds read low
The whole screen tested about 5,500 compounds, of which about 2,000 (36%) were called active. Roughly 18% stayed inconclusive and do not appear here. Some of the results follow.
Below is a list of entries, each paired with its recorded normalized growth value.
observation-type: normalized growth

# compound, measurement
measured = [
    ("CC1(C)NC(=O)N(c2ccc([N+](=O)[O-])c(C(F)(F)F)c2)C1=O", 0.996),
    ("Cc1coc2c1C(=O)C(=O)c1c-2ccc2c1CCCC2(C)C", 0.958),
    ("O=C(O)CN1C(=O)c2cccc3cccc(c23)C1=O", 0.943),
    ("Nc1nc2ncc(=O)[nH]c2c(=O)[nH]1", 0.911),
    ("Cc1cc(-c2ccccc2)nnc1NCCN1CCOCC1", 0.991),
    ("CC(=O)N[C@@H](CS)C(=O)O", 0.994),
    ("CC(C)COCC(CN(Cc1ccccc1)c1ccccc1)N1CCCC1 (stereo not given)", 1.02),
    ("Cn1c(=O)c2[nH]cnc2n(C)c1=O", 1.05),
    ("CC1(C)O[C@H]2[C@H](O)C[C@](O)(C(N)=O)C[C@H]2O1", 1.03),
    ("N[C@@H](CC(=O)N1CCn2c(nnc2C(F)(F)F)C1)Cc1cc(F)c(F)cc1F", 0.903),
    ("O=S1OCC2C(CO1)C1(Cl)C(Cl)=C(Cl)C2(Cl)C1(Cl)Cl (stereo not given)", 0.937),
    ("Cc1ccc(Cl)c(Nc2ccccc2C(=O)O)c1Cl", 0.746),
    ("OC(Cn1cncn1)(Cn1cncn1)c1ccc(F)cc1F", 1.01),
    ("NS(=O)(=O)c1cc2c(cc1Cl)NC(C(Cl)Cl)NS2(=O)=O (stereo not given)", 0.945),
    ("CCNC(=O)CC[C@H](N)C(=O)O", 1),
    ("OCCOCCN1CCN(C2=Nc3ccccc3Sc3ccccc32)CC1", 1),
    ("CC(C)(C)CC(C)(C)c1ccc(O)c(Cc2ccc(Cl)cc2Cl)c1", 1.02),
    ("CCOC(=O)Nc1nc2ccccc2[nH]1", 0.895),
    ("CC(C)[C@@H]1CC[C@@H](C)C[C@H]1O", 0.967),
    ("CC(C)C(=O)Nc1ccc([N+](=O)[O-])c(C(F)(F)F)c1", 1.02),
]

* * *

Reported values of normalized growth for individual entries
Test: chemical genetic growth profiling, strain panel (AID 1159580);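 note: tested at 20 µM; growth read once vehicle control cultures reached saturation at 30 °C; 1 = growth at the plate median or of vehicle wells; lower values mean less growth of the strain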
Details: S. cerevisiae deletion strains, growth OD, locus YNL161W, strain CBK1, active compounds read low
In all, about 5,500 compounds went through this assay and about 2,000 (36%) were called active. Another 18% or so got no clear call; they are omitted. The list shows a part of the results.

# compound, normalized growth
data = [
    ("OC(CN1CCN(c2nc3ccc(Cl)cc3s2)CC1)Cn1ccc2ccccc21 (centres undefined)", 0.982),
    ("Cc1ccc(NS(=O)(=O)c2ccc(Cl)cc2)c(N=Cc2cc(Cl)cc(Cl)c2O)c1", 0.951),
    ("Cc1onc(-c2c(Cl)cccc2Cl)c1C(=O)NNc1c(Cl)cccc1Cl", 0.989),
    ("Cc1ccc(NS(=O)(=O)c2ccc(-c3csc(C)n3)s2)c(C)c1", 0.982),
    ("O=C(Nc1ccc(Cl)cc1)OCCSc1nc2ccccc2s1", 0.985),
    ("Cc1nc(-c2ccc(S(=O)(=O)Nc3ccc(Br)cc3Cl)s2)cs1", 0.946),
    ("O=[N+]([O-])c1ccc(Sc2ssc(=S)c2-c2ccccc2)nc1", 0.929),
    ("CC(=O)Nc1ccc(S(=O)(=O)Nc2ccccc2Oc2ccc(Cl)cc2Cl)cc1", 0.995),
    ("CC1(C)OC(=O)C(=Cc2cccn2-c2ccc(OC(F)(F)F)cc2)C(=O)O1", 0.982),
    ("FC(F)(F)c1ccnc(N2CCCN(C(=S)Nc3ccc(Cl)cc3Cl)CC2)n1", 0.982),
    ("Cc1onc(-c2c(F)cccc2Cl)c1C(=O)NNc1cc(Cl)cc(Cl)c1", 0.979),
    ("S=c1[nH]nc(Nc2ccc(I)cc2)s1", 0.87),
    ("Cc1c(-c2ccnn2C(=O)c2ccco2)cnn1-c1ccccc1", 0.974),
    ("CC(C)(C)c1ccc(C(=O)Nc2ccc(C(F)(F)F)cc2)s1", 0.985),
    ("Cc1onc(-c2c(Cl)cccc2Cl)c1C(=O)NC(C)(C)CC(C)(C)C", 0.995),
    ("Cc1c(C(=S)Nc2ccccc2)sc2ccccc12", 0.954),
    ("Cc1ccc(NNC(=O)c2c(C)noc2C)cc1Cl", 0.98),
    ("Cc1cccc(NC(=S)NNC(=O)CSCc2cccc3ccccc23)c1", 0.984),
    ("CC(=O)ON=C1c2cc([N+](=O)[O-])ccc2-c2ccc([N+](=O)[O-])cc21", 0.952),
]

Numbers sourced from PubChem BioAssay AID1159580.
